Assay: refractive index (Na D-line) (dimensionless)
Details: 323.15 K; 101.33 kPa; Liquid; Standard Abbe refractometry
refractive index values, listed per item

- Molecule: "CC(C)C[P+](C)(CC(C)C)CC(C)C.Cc1ccc(S(=O)(=O)[O-])cc1 [triisobutylmethylphosphonium p-toluenesulfonate]"
  refractive index: 1.51055
- Molecule: "CCCC[P+](CC)(CCCC)CCCC.CCOP(=O)([O-])OCC [tributylethylphosphonium diethylphosphate]"
  refractive index: 1.45738
- Molecule: "CCCCCCCC[P+](CCCCCCCC)(CCCCCCCC)CCCCCCCC.[Br-] [tetraoctylphosphonium bromide]"
  refractive index: 1.48092
- Molecule: "CCCC[P+](C)(CCCC)CCCC.COS(=O)(=O)[O-] [tributylmethylphosphonium methyl sulfate]"
  refractive index: 1.46758

====

refractive index values, listed per item
Assay: refractive index (Na D-line) (dimensionless)
Settings: 348.15 K; 101.33 kPa; Liquid; Standard Abbe refractometry
Measured attribute: refractive index

- Compound: "CCCC[P+](CC)(CCCC)CCCC.CCOP(=O)([O-])OCC [tributylethylphosphonium diethylphosphate]"
  Value observed: 1.4488
- Compound: "CCCC[P+](C)(CCCC)CCCC.COS(=O)(=O)[O-] [tributylmethylphosphonium methyl sulfate]"
  Value observed: 1.46067
- Compound: "CC(C)C[P+](C)(CC(C)C)CC(C)C.Cc1ccc(S(=O)(=O)[O-])cc1 [triisobutylmethylphosphonium p-toluenesulfonate]"
  Value observed: 1.50252
- Compound: "CCCCCCCC[P+](CCCCCCCC)(CCCCCCCC)CCCCCCCC.[Br-] [tetraoctylphosphonium bromide]"
  Value observed: 1.47195

====

Conditions: 323.15 K; 101.33 kPa; Liquid; Vibrating tube method
± gives the expanded uncertainty stated by the source.
Measured attribute: mass density

- Compound: "CC(C)C[P+](C)(CC(C)C)CC(C)C.Cc1ccc(S(=O)(=O)[O-])cc1 [triisobutylmethylphosphonium p-toluenesulfonate]"
  Value observed: "1057.7 ± 1 kg/m3"
- Compound: "CCCCCCCC[P+](CCCCCCCC)(CCCCCCCC)CCCCCCCC.[Br-] [tetraoctylphosphonium bromide]"
  Value observed: "942 ± 0.9 kg/m3"
- Compound: "CCCC[P+](CC)(CCCC)CCCC.CCOP(=O)([O-])OCC [tributylethylphosphonium diethylphosphate]"
  Value observed: "994.3 ± 0.9 kg/m3"
- Compound: "CCCC[P+](C)(CCCC)CCCC.COS(=O)(=O)[O-] [tributylmethylphosphonium methyl sulfate]"
  Value observed: "1051.8 ± 1 kg/m3"

====

Conditions: 348.15 K; 101.33 kPa; Liquid; Concentric cylinders viscometry
Measured attribute: viscosity (mPa·s)

- Compound: "CCCC[P+](CC)(CCCC)CCCC.CCOP(=O)([O-])OCC [tributylethylphosphonium diethylphosphate]"
  Measured attribute: "viscosity"
  Unit tag: "mPa·s"
  Value observed: 25.6
- Compound: "CC(C)C[P+](C)(CC(C)C)CC(C)C.Cc1ccc(S(=O)(=O)[O-])cc1 [triisobutylmethylphosphonium p-toluenesulfonate]"
  Measured attribute: "viscosity"
  Unit tag: "mPa·s"
  Value observed: 102.8
- Compound: "CCCC[P+](C)(CCCC)CCCC.COS(=O)(=O)[O-] [tributylmethylphosphonium methyl sulfate]"
  Measured attribute: "viscosity"
  Unit tag: "mPa·s"
  Value observed: 86.4
- Compound: "CCCCCCCC[P+](CCCCCCCC)(CCCCCCCC)CCCCCCCC.[Br-] [tetraoctylphosphonium bromide]"
  Measured attribute: "viscosity"
  Unit tag: "mPa·s"
  Value observed: 93.4

====

Settings: 343.15 K; 101.33 kPa; Liquid; Vibrating tube method

- Compound: "CC(C)C[P+](C)(CC(C)C)CC(C)C.Cc1ccc(S(=O)(=O)[O-])cc1 [triisobutylmethylphosphonium p-toluenesulfonate]"
  Unit tag: "kg/m3"
  mass density: 1045.9
- Compound: "CCCC[P+](CC)(CCCC)CCCC.CCOP(=O)([O-])OCC [tributylethylphosphonium diethylphosphate]"
  Unit tag: "kg/m3"
  mass density: 980.9
- Compound: "CCCCCCCC[P+](CCCCCCCC)(CCCCCCCC)CCCCCCCC.[Br-] [tetraoctylphosphonium bromide]"
  Unit tag: "kg/m3"
  mass density: 929.8
- Compound: "CCCC[P+](C)(CCCC)CCCC.COS(=O)(=O)[O-] [tributylmethylphosphonium methyl sulfate]"
  Unit tag: "kg/m3"
  mass density: 1040.1

====

Experiment: refractive index (Na D-line) (dimensionless)
Settings: 338.15 K; 101.33 kPa; Liquid; Standard Abbe refractometry
refractive index values, listed per item
Measured attribute: refractive index

- Compound: "CCCC[P+](CC)(CCCC)CCCC.CCOP(=O)([O-])OCC [tributylethylphosphonium diethylphosphate]"
  Value observed: 1.45212
- Compound: "CCCCCCCC[P+](CCCCCCCC)(CCCCCCCC)CCCCCCCC.[Br-] [tetraoctylphosphonium bromide]"
  Value observed: 1.47523
- Compound: "CC(C)C[P+](C)(CC(C)C)CC(C)C.Cc1ccc(S(=O)(=O)[O-])cc1 [triisobutylmethylphosphonium p-toluenesulfonate]"
  Value observed: 1.50537
- Compound: "CCCC[P+](C)(CCCC)CCCC.COS(=O)(=O)[O-] [tributylmethylphosphonium methyl sulfate]"
  Value observed: 1.46318

====

viscosity values, listed per item
Settings: 343.15 K; 101.33 kPa; Liquid; Concentric cylinders viscometry
Numbers after ± are expanded uncertainties.
Measured attribute: viscosity

- Compound: "CCCC[P+](C)(CCCC)CCCC.COS(=O)(=O)[O-] [tributylmethylphosphonium methyl sulfate]"
  Measured attribute: "viscosity"
  Value observed: "107.9 ± 1.6 mPa·s"
- Compound: "CCCC[P+](CC)(CCCC)CCCC.CCOP(=O)([O-])OCC [tributylethylphosphonium diethylphosphate]"
  Measured attribute: "viscosity"
  Value observed: "30.8 ± 0.3 mPa·s"
- Compound: "CCCCCCCC[P+](CCCCCCCC)(CCCCCCCC)CCCCCCCC.[Br-] [tetraoctylphosphonium bromide]"
  Measured attribute: "viscosity"
  Value observed: "114.4 ± 1.7 mPa·s"
- Compound: "CC(C)C[P+](C)(CC(C)C)CC(C)C.Cc1ccc(S(=O)(=O)[O-])cc1 [triisobutylmethylphosphonium p-toluenesulfonate]"
  Measured attribute: "viscosity"
  Value observed: "132.1 ± 2.2 mPa·s"

====

Settings: 318.15 K; 101.33 kPa; Liquid; Concentric cylinders viscometry
Measured attribute: viscosity (mPa·s)

- Compound: "CCCCCCCC[P+](CCCCCCCC)(CCCCCCCC)CCCCCCCC.[Br-] [tetraoctylphosphonium bromide]"
  Measured attribute: "viscosity"
  Unit tag: "mPa·s"
  Value observed: 376.5
- Compound: "CCCC[P+](CC)(CCCC)CCCC.CCOP(=O)([O-])OCC [tributylethylphosphonium diethylphosphate]"
  Measured attribute: "viscosity"
  Unit tag: "mPa·s"
  Value observed: 94.6
- Compound: "CCCC[P+](C)(CCCC)CCCC.COS(=O)(=O)[O-] [tributylmethylphosphonium methyl sulfate]"
  Measured attribute: "viscosity"
  Unit tag: "mPa·s"
  Value observed: 403.6
- Compound: "CC(C)C[P+](C)(CC(C)C)CC(C)C.Cc1ccc(S(=O)(=O)[O-])cc1 [triisobutylmethylphosphonium p-toluenesulfonate]"
  Measured attribute: "viscosity"
  Unit tag: "mPa·s"
  Value observed: 623.7

====

Settings: 338.15 K; 101.33 kPa; Liquid; Vibrating tube method
Measured attribute: mass density (kg/m3)

- Compound: "CCCCCCCC[P+](CCCCCCCC)(CCCCCCCC)CCCCCCCC.[Br-] [tetraoctylphosphonium bromide]"
  Measured attribute: "mass density"
  Unit tag: "kg/m3"
  Value observed: 932.9
- Compound: "CCCC[P+](C)(CCCC)CCCC.COS(=O)(=O)[O-] [tributylmethylphosphonium methyl sulfate]"
  Measured attribute: "mass density"
  Unit tag: "kg/m3"
  Value observed: 1043
- Compound: "CCCC[P+](CC)(CCCC)CCCC.CCOP(=O)([O-])OCC [tributylethylphosphonium diethylphosphate]"
  Measured attribute: "mass density"
  Unit tag: "kg/m3"
  Value observed: 984.3
- Compound: "CC(C)C[P+](C)(CC(C)C)CC(C)C.Cc1ccc(S(=O)(=O)[O-])cc1 [triisobutylmethylphosphonium p-toluenesulfonate]"
  Measured attribute: "mass density"
  Unit tag: "kg/m3"
  Value observed: 1048.8

====

Conditions: 318.15 K; 101.33 kPa; Liquid; Vibrating tube method

- Compound: "CCCCCCCC[P+](CCCCCCCC)(CCCCCCCC)CCCCCCCC.[Br-] [tetraoctylphosphonium bromide]"
  Unit tag: "kg/m3"
  mass density: 945
- Compound: "CC(C)C[P+](C)(CC(C)C)CC(C)C.Cc1ccc(S(=O)(=O)[O-])cc1 [triisobutylmethylphosphonium p-toluenesulfonate]"
  Unit tag: "kg/m3"
  mass density: 1060.9
- Compound: "CCCC[P+](C)(CCCC)CCCC.COS(=O)(=O)[O-] [tributylmethylphosphonium methyl sulfate]"
  Unit tag: "kg/m3"
  mass density: 1054.8
- Compound: "CCCC[P+](CC)(CCCC)CCCC.CCOP(=O)([O-])OCC [tributylethylphosphonium diethylphosphate]"
  Unit tag: "kg/m3"
  mass density: 997.6
